testSystem: T1, UNK ZnF1-3 (human, UniProt Q9C0B0 31-174)
T1 sequence: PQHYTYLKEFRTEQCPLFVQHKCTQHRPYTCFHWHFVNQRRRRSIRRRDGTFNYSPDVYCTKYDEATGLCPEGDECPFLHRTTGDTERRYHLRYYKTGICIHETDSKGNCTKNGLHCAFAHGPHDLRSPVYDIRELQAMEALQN
test: nsRBNS (natural sequence RNA bind-n-seq); RBNS binding buffer (assumed for nsRBNS): 25 mM Tris pH 7.5, 150 mM KCl, 3 mM MgCl2, 0.01% Triton X-100, 500 ug/ml BSA, 20 U/ml SUPERase-In, 4 C; UNK is unkempt and MSI1 is Musashi-1; names of the RNAs are library labels; protein concentration not given here; high values mean tight binding
In all, about 24,000 sequences were measured (“enrichment r”: median about 0.99, highest 2% from about 3.7 on). The full list was thinned out, with the highest values kept by preference.
Entries get a class label from measured binding signal. See ranges: range 1: < 0.6 enrichment R; range 2: ≥ 0.6 enrichment R and < 1 enrichment R; range 3: ≥ 1 enrichment R

• chr5:128448638:128448639:+_ENSG00000066583_ENST00000173527|hu_mus|hu_hu_hu_mus_False|28_28 (ssRNA) RNA: GGGAGUUCUACAGUCCGACGAUCGGCACUCGCCUUAAUUAGGUUCUGAAUUUCCUUGAACUUCGGGUGGUCUUUGUCAGCCACCAGCUGUAGGAGGACAGCCUCACUCGUGGUCACGAUGAUCCCAGUGCGGGCAAGACGCUCCAACAGAGGAUUGAGCAUCA = range 2
• chr14:62224477:62224478:+_ENSMUSG00000035235_ENSMUST00000039562|mus_hu|FALSE|FALSE (ssRNA) RNA: GGGAGUUCUACAGUCCGACGAUCUUCAUUGAAAAUGAAAAACCCAUCUGUCACCUGUUCCCAGUAAAAAACUGAUUGUUCUAUGAAAUCGGCUGUUUUAGUCAGAUAGGAACUGAAGUUUGAAAGACAGCCUUUCCAAGUUGCCAACAGAGGAUUGAGCAUCA = range 2
• chrX:16871948:16871949:-_ENSG00000102054_ENST00000404022|hu_mus|FALSE|FALSE (ssRNA) RNA: GGGAGUUCUACAGUCCGACGAUCAGUAAAGAUUGCUUUAGCAUCCACAAUUUUGCCUUCCUUUGGUCCUGCAUUUAUAUCCCACAGGCAGACAGUAUGGUCAUCAGAUGCACUCAGGAGAUGCCCACUCAGAUUAGAAUUCCACAACAGAGGAUUGAGCAUCA = range 3
• 109540647_109541272_703_CDS_ENSG00000076248_ENST00000242576|human|control|control (ssRNA) RNA: GGGAGUUCUACAGUCCGACGAUCACGAACCGUGAGGACAGCGUUGAGAAGGAGAACACCUUGCUUGGCCCACCCAGAUAAAUCUCCAUGGCCAGGAUGAACAAAAUCCUCUAUGUCUGUAGACAACUCUUUAUAAAUGUUCUCCAACAGAGGAUUGAGCAUCA = range 3
• chr13:90244479:90244480:+_ENSMUSG00000012422_ENSMUST00000161568|mus_hu|FALSE|FALSE (ssRNA) RNA: GGGAGUUCUACAGUCCGACGAUCCAAAAUGGUGUGCCCAGAGGAAAAGCAAGCACUAUUAAAUAUUAAUGCAAUCCUUAUCAACACAAAUUGAGCCAUUUUAAUAAAAAAGCUAGUCCAAAAAAGGUUCUCAUUCUAUAAAGACAACAGAGGAUUGAGCAUCA = range 3
• 129354385_129360783_1558_CDS_ENSG00000056277_ENST00000370978|human|control|control (ssRNA) RNA: GGGAGUUCUACAGUCCGACGAUCAUGUUCAGCUUUCUCCUUGCUGGUCAAAAAUUGUAGUCUGCAUUUUGGGCAACGAUGAACUCCUUUUUUCUGAUGCUUCAUGUAAUGAUUCAUGUAGGGGGUUGCCAUUUUACUAACUUUCAACAGAGGAUUGAGCAUCA = range 1
• chr22:36164377:36164378:-_ENSG00000100320_ENST00000405409|hu_hu|motif|central (ssRNA) RNA: GGGAGUUCUACAGUCCGACGAUCACGGCCCUCUACCACGGUGCCGUGUAAUUUCUCCCUGGCCCUGUCUGCAUCAGCACGGUUCUCGAAAGUUACGAACCCGAAUCCCUUAGAGCCACGUUCAUUAAAGAUUAUUUCUACAUCCAACAGAGGAUUGAGCAUCA = range 2
• 37721237_37722996_1653_CDS_ENSG00000082068_ENST00000265107|human|control|control (ssRNA) RNA: GGGAGUUCUACAGUCCGACGAUCUGCCUUCCGCUGGGUUUUAACCACACAUAAUUUUGCUCCCCUCUGACUCUUGUUGGGGUCGUAAUAGACUUUAGCCAAUCCAUUUCCAGUUCCAACCAUGAUCUGGUUCAGCUUUGGAUGCAACAGAGGAUUGAGCAUCA = range 1
• chrX:140365796:140365797:-_ENSMUSG00000031285_ENSMUST00000033642|mus_mus|mus_mus_mus_hu_False|8_58 (ssRNA) RNA: GGGAGUUCUACAGUCCGACGAUCCUUCUCAUUACUCAGUGCCUGCAAGGUUCUGGUUCGGUAGAAGCUACAGUGGGCACUAUGAGUGGGGCUAGGCAACCCAUUCAUCCGGGAGCCUCGCAUGUUCCUAGAUGCUUUAUCUCUCAACAGAGGAUUGAGCAUCA = range 1
• chr3:58389949:58389950:+_ENSMUSG00000075700_ENSMUST00000107924|mus_hu|FALSE|FALSE (ssRNA) RNA: GGGAGUUCUACAGUCCGACGAUCCAAGAAGAAAACCAUCAUACAUGCAUAAACCUUAUUUUCUUGGCCCCACUGCCAGAUGCUAGGAGCUUGCAUGCCAAAGAAAGCAAAAGGAUCCUUGCCAACAAUUAUUAAGCCUAUUAACAACAGAGGAUUGAGCAUCA = range 3
• 69202206_69203042_311_CDS_ENSG00000135679_ENST00000462284|human|control|control (ssRNA) RNA: GGGAGUUCUACAGUCCGACGAUCUGAGGUGGUUACAGCACCAUCAGUAGGUACAGACAUGUUGGUAUUGCACAUUUGCCUGCUCCUCACCAUCCGGGGUUUUCGCGCUUGGAGUCGGGGGUCCCUCAAGACUCCCCAGUUUCCCAACAGAGGAUUGAGCAUCA = range 1
• 171752885_171753005_485_CDS_ENSG00000010165_ENST00000361735|human|control|control (ssRNA) RNA: GGGAGUUCUACAGUCCGACGAUCGGUGGCAUUACAUUCCUUCAUUUGCUUGAUGACAACCUCACUGAUGUCGAUGUUCACUAUAUCCCGAUAGCCCACAUCAUACAGUUGCUCACUCAGUUCUGAGUUGCCACACCCAAUCACCAACAGAGGAUUGAGCAUCA = range 2
